Test system: SN12C renal
Assay: NCI tumour cell line growth inhibition, 48 h
readout kind: TGI (µM)
# output: bare number, implied unit µM

Take a look at these entries with their results.
# molecule, measurement target, TGI / µM
measured = [
    ("CC(C)=CCc1c(O)c(CC=C(C)C)c2oc3c(c(=O)c2c1O)C(C=C(C)C)Oc1cc(O)ccc1-3 (centres undefined)", "SN12C renal", 18.2),
    ("NCCCNCCCNc1nc2ccccc2c2[nH]c3ccccc3c12", "SN12C renal", 1.28),
    ("O=C(c1no[n+]([O-])c1C(=O)c1csc2ccccc12)c1csc2ccccc12", "SN12C renal", 12.1),
]

# lookup: TGI of Cc1ccc(S(=O)(=O)OC(C=O)C(O)C(O)COC(c2ccccc2)(c2ccccc2)c2ccccc2)cc1 (centres undefined)
28.9

Next up: "O=C(/C=C/c1cccnc1)/C=C/c1cccnc1"
12.7

Next up: "C/C=C(\C)C(=O)O[C@@H]1C=CC(=O)O[C@H]1COC(=O)[C@H](C)O"
30.2

Next up: "O=C1c2cccnc2-c2nc(-c3ccccc3)cc3c2c1nc1ccccc13"
21.1
